Biological target: human glucagon receptor (human, UniProt P47871)
Assay: cell-based or functional assay
Starred links: 1 amine or outer side, 2 acyl side, 3 side chain; linkers in the order of their positions; H or OH if unused. Non-standard residues stand in square brackets, D forms with d. Groups on a side chain read outwards from the residue. No end group written: not given here. *: point of attachment. C20 diacid = O=C(O)CCCCCCCCCCCCCCCCCCC(=O)*; C18 diacid = O=C(O)CCCCCCCCCCCCCCCCC(=O)*; γGlu = O=C(O)[C@H](CCC(=O)[*:2])N[*:1]; αMeF = C[C@](N)(Cc1ccccc1)C(=O)O; AEEA = NCCOCCOCC(=O)O; Aib = CC(C)(N)C(=O)O
Parameter: hGluc-R EC50 (pM). Scope: all listed entries.
reported_property: hGluc-R EC50 (pM)

| binder | reported_property | unit_descriptor | result_number |
| --- | --- | --- | --- |
| HXHGSXTSDVSKXLDSQAAQDFVXWIANT (Aib at 2; αMePhe at 6, 13; Lys 24 acylated K(γE-γE-(PEG)2-γE-γE-C20diacid)24; C-terminal amide) [Peptide 357] | hGluc-R EC50 (pM) | pM | 550 |
| H[Aib]HGS[αMeF]TSDVSK[αMeF]LDSRAAQDFVK([AEEA-AEEA-γGlu-C20 diacid])WIANT-NH2 (not fully specified) [Peptide 367] | hGluc-R EC50 (pM) | pM | 72.4 |
| H[Aib]HGS[αMeF]TSDVSK[αMeF]LDSRAAQD[αMeF]VK([AEEA-AEEA-γGlu-C18 diacid])SIANT-NH2 (not fully specified) [Peptide 379] | hGluc-R EC50 (pM) | pM | 85.7 |
| H[Aib]HGS[αMeF]TSDVSK[αMeF]LDSQAAQD[αMeF]VK([AEEA-AEEA-γGlu-γGlu-C20 diacid])[Aib]IANT-NH2 [Peptide 384] | hGluc-R EC50 (pM) | pM | 1240 |
